Origin of the recorded values: paper PMC9911399

Reported binding signal values are given for each entry in this list.
Molecular target: T1, RBFOX1 RRM RbFoxmut (Fox-RRM*) (Homo sapiens, UniProt Q9NWB1 109-208, R118D;E147R;N151S;E152T)
T1 sequence: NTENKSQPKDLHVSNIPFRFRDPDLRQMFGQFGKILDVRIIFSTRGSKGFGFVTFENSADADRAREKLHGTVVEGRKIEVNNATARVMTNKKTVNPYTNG
Test: EMSA; HiTS-Eq, 1 nM pool, 10 min; buffer printed only for the single-RNA assays: 10 mM Tris pH 7.5, 150 mM NaCl, 3.4 mM EDTA, 0.001% NP-40, 30 C
Conditions: tags: His6 N-terminal (pET28a); label: 5' 32P
Whole data set: some 16,000 sequences, median “ka relative to ugcaugu” near 0.096, cut for the highest 2% near 0.35. The sample holds the highest values, similar sequences and a random draw of the others, so the mix is not that of the screen.

Guide cases for binding signal, answers given:
UGGGUCC (DNA:RNA) RNA: GGGAGACCGGAAUUCAGAUUGUCCUGGGUCCUUAAAUCCCGUCGUAGCCACCA DNA 1: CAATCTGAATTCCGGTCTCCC DNA 2: TGGTGGCTACGACGGGATT : 0.149 KA relative to UGCAUGU
UGGGUGU (DNA:RNA) RNA: GGGAGACCGGAAUUCAGAUUGUCCUGGGUGUUUAAAUCCCGUCGUAGCCACCA DNA 1: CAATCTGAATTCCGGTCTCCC DNA 2: TGGTGGCTACGACGGGATT : 0.305 KA relative to UGCAUGU
CUGGCUG (DNA:RNA) RNA: GGGAGACCGGAAUUCAGAUUGUCCCUGGCUGUUAAAUCCCGUCGUAGCCACCA DNA 1: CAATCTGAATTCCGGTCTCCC DNA 2: TGGTGGCTACGACGGGATT : 0.431 KA relative to UGCAUGU
CAAAUUG (DNA:RNA) RNA: GGGAGACCGGAAUUCAGAUUGUCCCAAAUUGUUAAAUCCCGUCGUAGCCACCA DNA 1: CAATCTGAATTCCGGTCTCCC DNA 2: TGGTGGCTACGACGGGATT : 0.117 KA relative to UGCAUGU
UGGUCCG (DNA:RNA) RNA: GGGAGACCGGAAUUCAGAUUGUCCUGGUCCGUUAAAUCCCGUCGUAGCCACCA DNA 1: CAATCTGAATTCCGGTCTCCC DNA 2: TGGTGGCTACGACGGGATT : 0.265 KA relative to UGCAUGU
UGGGCUC (DNA:RNA) RNA: GGGAGACCGGAAUUCAGAUUGUCCUGGGCUCUUAAAUCCCGUCGUAGCCACCA DNA 1: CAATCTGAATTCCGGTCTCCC DNA 2: TGGTGGCTACGACGGGATT : 0.115 KA relative to UGCAUGU
UGGGGGG (DNA:RNA) RNA: GGGAGACCGGAAUUCAGAUUGUCCUGGGGGGUUAAAUCCCGUCGUAGCCACCA DNA 1: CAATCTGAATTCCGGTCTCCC DNA 2: TGGTGGCTACGACGGGATT : 0.0903 KA relative to UGCAUGU
UGUAAGU (DNA:RNA) RNA: GGGAGACCGGAAUUCAGAUUGUCCUGUAAGUUUAAAUCCCGUCGUAGCCACCA DNA 1: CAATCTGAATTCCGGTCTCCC DNA 2: TGGTGGCTACGACGGGATT : 0.118 KA relative to UGCAUGU

Shifting focus to the binder that follows.
Lookup: Provide binding signal value for the following binder: UGUGGUG (DNA:RNA) RNA: GGGAGACCGGAAUUCAGAUUGUCCUGUGGUGUUAAAUCCCGUCGUAGCCACCA DNA 1: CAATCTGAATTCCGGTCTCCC DNA 2: TGGTGGCTACGACGGGATT
Found: 0.273 KA relative to UGCAUGU
